B1: RIT1 (parent)
chain: FHALVREIRRKEKEAVLAMEKKSK

Variants of: B1
protocol text: protein stability index of a GFP-peptide fusion (GPS, HEK-293T) (PSI 1-6); higher = more stable;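 also: lentivirally expressed fusions sorted by FACS into six bins by GFP to DsRed ratio, PSI derived from sequencing read proportions per bin multiplied by bin number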
stated conditions: c terminus: a fixed tail appended
Task for the reader: assign each of the following variants its reported protein stability index.
Give the value as a plain number.

So what's the measured protein stability index for this one? FHALVREIRRKEKEALLAMEKKSK [V16L]
2.05

So what's the measured protein stability index for this one? FHALVREIRRKEKEAVLAMEKLSK [K22L]
1.97

So what's the measured protein stability index for this one? FHALLREIRRKEKEAVLAMEKKSK [V5L]
2.01

So what's the measured protein stability index for this one? FHALVREIRRKEKEAVLADEKKSK [M19D]
2.04

So what's the measured protein stability index for this one? FHALVREIRRKENEAVLAMEKKSK [K13N]
2.02

So what's the measured protein stability index for this one? FHALVREIRRVEKEAVLAMEKKSK [K11V]
1.99

So what's the measured protein stability index for this one? FHRLVREIRRKEKEAVLAMEKKSK [A3R]
2.05

So what's the measured protein stability index for this one? FHALVREIRRKEKEIVLAMEKKSK [A15I]
2.05
